Data origin: PubChem BioAssay (NCI)

System: SK-MEL-28 melanoma
PROTOCOL_NOTES: NCI-60 one-dose screen, 48 h (100 = growth as untreated, 0 = no growth, -100 = all killed)
APPLIED_CONDITIONS: 10 µM unless noted
This is part of a sample that, as a whole, favours compounds with a hit. Of some 83,000 tested, about 20% had one in any assay.
REPORTED_PROPERTY: growth (%)
Give bare numbers, in %.

Would you please look over these solved cases?
CC(C)C[C@H](C(=O)O)N(C)C(=O)[C@@H]1CCCN1C(=O)[C@H](C)OC(=O)[C@H](CCC(N)=O)NC(=O)[C@@H]1CCC(=O)N1 :: 103
O=C1Nc2ccc(Br)cc2/C1=N\N=C/c1cn(Cc2ccccc2)c2ccccc12 :: 105
Cc1ccc(C(=O)O)o1 :: 108
COc1ccc(N(C)c2nc(Cl)nc3ccn(C)c23)cc1 :: 49.2

Lab note: each molecule below needs its growth filled in.
1. COc1ccc(C2CC(c3ccc(OC)cc3O)=NN2c2ccc(S(N)(=O)=O)cc2)cc1 (configuration not stated)
2. C=C(C)[C@@H]1CC[C@]2(C(=O)N3CCN(C)CC3)CC[C@]3(C)[C@H](CC[C@@H]4[C@@]5(C)C/C(=C/c6ccco6)C(=O)C(C)(C)[C@@H]5CC[C@]43C)[C@@H]12
3. COc1cc2nc3c(=O)n(-c4ccc(C#N)cc4)cnn3c(=O)c2cc1OC
4. COc1cc(-c2csc(NC(=O)Nc3cc(Cl)cc(Cl)c3)n2)cc(OC)c1OC
5. CN(CCC#N)C(=O)Nc1ccccc1

Output line:
1. 56.1
2. 55.7
3. 99.8
4. 30.6
5. 112

Working through the 7 molecules below one at a time, give growth for each.
1. Cc1cc(Cl)cc(CN(Cc2ccccc2)Cc2c(O)ccc3ccccc23)c1O
2. COc1cc(C)ccc1Oc1nc(Nc2ccc(N3CCOCC3)cc2)ncc1N=Cc1cc(C(F)(F)F)cc(C(F)(F)F)c1
3. COc1ccc(C2C(c3ccccc3)C(=O)N2c2cc(OC)c(OC)c(OC)c2)cc1I (configuration not stated)
4. CCCCCCC/C=C/[C@H]1O[C@]23C(=O)C[C@@]4(C[C@@H](OC5OC(CO)C(O)C(O)C5O)C[C@@H]4[C@H]2C=C1C)OC3=O (some centres not stated)
5. CCC1=C[C@H]2CN(CCc3c([nH]c4ccccc34)[C@@](C(=O)OC)(c3cc4c(cc3OC)N(C)[C@H]3[C@@](O)(C(=O)OC)[C@H](OC(C)=O)[C@]5(CC)[C@@H]6C[C@@H]6CN6CC[C@]43[C@@H]65)C2)C1
6. CC(=O)Nc1c(C(=O)Nc2ccccc2)sc2nc3c(cc12)C(OC(C)=O)CCC3 (configuration not stated)
7. N#Cc1ccc(Oc2ccc3ccc(=O)oc3c2)cc1

Output line:
[113, 96.7, 60.3, -5.61, 58.5, 88.9, 107]

Memo: `C=C1C(=O)O[C@H]2[C@H]1CC/C(COC(=O)NCC(=O)Nc1ccc(OC)c(C(N)=O)c1O)=C\CC[C@@]1(C)O[C@@H]21` , reported growth: 47.9
